method-description: TTR transcription activators in neuroblastoma reporter cells, primary screen, cell-based, luminescence, SH-SY5Y, TTR promoter Gaussia luciferase (AID 1117267);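 also: cells exposed to compounds for one day before reading; 0% = median of all test compound wells on the plate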
settings: at 16.7 µM, hits give high values, 100% = recombinant luciferase protein wells
Hit rate of the full screen: of about 92,000 compounds, about 1,200 (1.3%) were called active. This is one part of a sample in which actives are shown more often than they occur.
Measured activation values are reported for all entries that follow.
Give the quantity in %, number only.

Use these answered entries as a reference point.
Ask: Need activation, item COc1cc(C(C)=O)ccc1OC(C)C(=O)Nc1ccc(S(=O)(=O)N2CCCC2)cc1 (stereo not given)
Result: 10

Ask: Need activation, item O=C(NCc1ccc(Cl)cc1)C1CCN(S(=O)(=O)c2cccs2)CC1
Result: -1.39

Ask: Need activation, item CCN(CC)S(=O)(=O)c1ccc(C(=O)N2CCN(C3=NS(=O)(=O)c4ccccc43)CC2)cc1
Result: -0.96

Ask: Need activation, item O=C(CSc1n[nH]c(-c2cccnc2)n1)Nc1ccc(Cl)cc1
Result: -0.75

Ask: Need activation, item N#Cc1ccc(CSc2nnc3ccccn23)cc1
Result: -0.39

Ask: Need activation, item O=C(NNS(=O)(=O)c1ccccc1)c1cnn(-c2ccc(Cl)cc2)c1C(F)(F)F
Result: -0.1

More entries:
Ask: Need activation, item Nc1nc(SCC(=O)Nc2ccc(Cl)cc2C(F)(F)F)n[nH]1
Result: 0.01

Ask: Need activation, item O=C1CCN(CCc2ccccc2)CCN1CCOc1ccccc1
Result: 0.26

Ask: Need activation, item O=C(CCc1nnc(CCCCc2ccccc2)o1)NC(c1cccnc1)C(F)(F)F (stereo not given)
Result: -0.47

Ask: Need activation, item Cc1ccc(-n2c(SCC(=O)Nc3ccc4c(c3)OCO4)nnc2-c2ccccn2)cc1
Result: -2.71

====

method-description: TTR transcription activators in neuroblastoma reporter cells, primary screen, cell-based, luminescence, SH-SY5Y, TTR promoter Gaussia luciferase (AID 1117267);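 also: cells exposed to compounds for one day before reading; 0% = median of all test compound wells on the plate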
settings: at 16.7 µM, 100% = recombinant luciferase protein wells
In all, about 92,000 compounds went through this assay and about 1,200 (1.3%) were called active.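 Rule for the calls: active = activation above the mean of all tested compounds plus 3 SD (cut at about 9.5% in these data); inactive = the rest.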 Only a selection was taken, and actives are over-represented in it overall.
Would you mind answering with one of these outcomes? active, inactive

Please review the entries below; each comes with its answer.
Ask: Could you check what this test reported for CCCCCc1ccc(-c2ccc(OCC)cc2)nc1 ?
Result: inactive

Ask: Could you check what this test reported for CCOC(=O)C1=C(O)CSC1=Nc1cccc(Cl)c1 ?
Result: inactive

Ask: Could you check what this test reported for COc1ccc(Cn2cc(COC(=O)N(C)Cc3ccccc3)nn2)cc1 ?
Result: inactive

Ask: Could you check what this test reported for COc1cc(N2C(=O)CC3(CCCC3)CC2=O)cc(OC)c1OC ?
Result: active

More entries:
Ask: Could you check what this test reported for FC(F)(F)c1cc(-c2ccco2)nc(N2CCOCC2)n1 ?
Result: inactive

Ask: Could you check what this test reported for COc1cc(NC(=S)N2CCCC(C)C2)cc(OC)c1OC (configuration not stated) ?
Result: inactive

Ask: Could you check what this test reported for CCCCCc1ccc(-c2cn(Cc3ccc4ccccc4c3)nn2)cc1 ?
Result: active

====

method-description: TTR transcription activators in neuroblastoma reporter cells, primary screen, cell-based, luminescence, SH-SY5Y, TTR promoter Gaussia luciferase (AID 1117267);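 also: cells exposed to compounds for one day before reading; 0% = median of all test compound wells on the plate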
settings: at 16.7 µM, hits give high values, 100% = recombinant luciferase protein wells
About 1,200 (1.3%) of roughly 92,000 compounds were called active. What follows is part of a selection rich in actives, with near analogues and random picks from the rest.
experimental-readout: activation (%)
Give the quantity in %, number only.

Use these answered entries as a reference point.
Ask: Need activation, item CCOC(=O)c1c(C)oc2cc(Sc3ccccc3)c(O)c(O)c12
Result: -2.74

Ask: Need activation, item Cc1ccc(NC(=O)CN(C)Cc2ccc(F)cc2)c([N+](=O)[O-])c1
Result: 2.25

Ask: Need activation, item O=C(Cc1ccccc1)Nc1cccc(NC(=O)c2ccccc2)c1
Result: -1.17

Ask: Need activation, item Brc1ccc(-c2csc(N/N=C/c3cccnc3)n2)cc1
Result: -4.96

Ask: Need activation, item O=C(CCC(=O)c1cccs1)Nc1nc2ccccc2s1
Result: 0.06

More entries:
Ask: Need activation, item CN(C)CCNC(=O)Cc1ccc([N+](=O)[O-])cc1
Result: 0.61

Ask: Need activation, item CCOc1ccc(NC(=O)CSc2nc3ccccc3c(=O)n2Cc2cccs2)cc1
Result: 0.62

Ask: Need activation, item CC1CCN(S(=O)(=O)c2ccc(S(=O)(=O)NCc3cccnc3)cc2)CC1
Result: 1.06

Ask: Need activation, item O=C(CCC(=O)c1cccs1)NC1CCCCCC1
Result: -2.1

Ask: Need activation, item CC(=O)Nc1ccc(C(=O)Nc2nc(-c3cc(C)n(Cc4ccccc4)c3C)cs2)cc1
Result: -0.51

Ask: Need activation, item Cc1cccc(C)c1NC(=O)CN1CCN(c2ccc(F)cc2)CC1
Result: 1.02

Ask: Need activation, item C=C(C)CNC(=S)N/N=C/c1ccccc1OCC(=O)O
Result: 8.68

Ask: Need activation, item CC(=O)C[C@@H]1OC[C@H](C)N1S(=O)(=O)c1ccc(C)cc1
Result: 1.64

Ask: Need activation, item N#Cc1ccc(/C=C2\CCn3c2nc2cc(C(=O)O)ccc2c3=O)cc1
Result: -0.49

Ask: Need activation, item Cc1c(NC(=O)C(=O)N/N=C/c2cccs2)c(=O)n(-c2ccccc2)n1C
Result: -1.22

Ask: Need activation, item Cc1cc(C)c(C#N)c(SCc2ccccc2C(=O)O)n1
Result: 5.37

Ask: Need activation, item O=C1CN(C(=O)COC(=O)C2CC(=O)N(Cc3ccco3)C2)c2ccccc2N1 (stereo not drawn)
Result: 12.4
